Taken from patent US20260085034A1.

Answer each item with its documented IC50.
assay target: recombinant hGYS1/GN1 protein (Homo sapiens, UniProt P13807)
Sequence (P13807 1-737): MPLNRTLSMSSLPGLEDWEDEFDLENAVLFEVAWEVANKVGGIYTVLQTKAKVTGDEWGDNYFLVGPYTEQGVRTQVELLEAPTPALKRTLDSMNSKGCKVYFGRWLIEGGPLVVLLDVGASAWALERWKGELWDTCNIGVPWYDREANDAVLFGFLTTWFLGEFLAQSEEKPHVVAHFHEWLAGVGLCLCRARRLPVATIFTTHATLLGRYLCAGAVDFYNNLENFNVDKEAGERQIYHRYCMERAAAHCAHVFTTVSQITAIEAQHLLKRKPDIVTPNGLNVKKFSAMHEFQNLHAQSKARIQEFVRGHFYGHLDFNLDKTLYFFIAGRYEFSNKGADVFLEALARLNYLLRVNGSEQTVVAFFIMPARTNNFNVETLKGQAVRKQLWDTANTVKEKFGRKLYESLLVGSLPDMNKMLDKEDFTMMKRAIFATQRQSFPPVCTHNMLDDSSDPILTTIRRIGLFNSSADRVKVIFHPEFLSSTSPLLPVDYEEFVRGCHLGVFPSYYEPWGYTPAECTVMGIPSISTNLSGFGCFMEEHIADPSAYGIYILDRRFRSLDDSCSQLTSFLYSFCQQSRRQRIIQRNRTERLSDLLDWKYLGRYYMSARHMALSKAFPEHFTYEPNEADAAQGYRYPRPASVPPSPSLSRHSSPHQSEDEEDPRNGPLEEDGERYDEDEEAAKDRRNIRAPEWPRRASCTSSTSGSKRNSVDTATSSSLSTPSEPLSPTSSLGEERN
Sequence (P46976 1-350 partner): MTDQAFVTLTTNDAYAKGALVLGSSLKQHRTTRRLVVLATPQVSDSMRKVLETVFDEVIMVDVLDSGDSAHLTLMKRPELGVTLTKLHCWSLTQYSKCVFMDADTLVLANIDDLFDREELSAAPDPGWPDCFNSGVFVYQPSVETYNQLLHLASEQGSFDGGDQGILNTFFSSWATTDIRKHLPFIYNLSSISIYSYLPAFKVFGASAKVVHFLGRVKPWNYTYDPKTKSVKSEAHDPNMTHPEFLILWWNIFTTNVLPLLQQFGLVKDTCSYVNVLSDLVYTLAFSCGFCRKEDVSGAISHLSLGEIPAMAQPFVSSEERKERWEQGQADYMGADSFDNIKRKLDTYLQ
protocol summary: GYS1 coupled enzyme assay (PK/LDH)
run conditions: geometric mean of at least 2 assay runs; NADH absorbance at 340 nm
Don't forget the unit after the number, please.

Challenge: Can you look up the measured IC50 of Cc1cccc([C@H](NC(=O)C2CC2)c2ccc(C(C)C)cc2)c1 (single isomer, unassigned) [compound 66] for me?
Response given: 2100 nM

Challenge: # IC50 lookup, item CC(=O)Nc1ccccc1[C@H](NC(=O)C1CC1)c1ccc(C(C)C)cn1 [compound 46]
Response given: 1420 nM

Challenge: So what's the measured IC50 for this one? Cc1n[nH]cc1[C@H](NC(=O)C1CC1)c1ccc(C(C)C)cc1 (single isomer, unassigned) [compound 43]
Response given: 2440 nM

Challenge: Which IC50 reading was recorded for the compound CNC(=O)[C@H]1CCC[C@H]1C(=O)N[C@H](c1ccc(C(C)C)cc1)c1ccccc1C [compound 16] ?
Response given: 1740 nM
